target: HA of ca A/Netherlands/219/03 (H7N7) virus (influenza A virus); assay: cell-based or functional assay
Value Kind: Neutralization IC50, H7-NLD03

Q: // query Neutralization IC50, H7-NLD03 value for entry Antibody 6 (antibody, V domains shown) VH: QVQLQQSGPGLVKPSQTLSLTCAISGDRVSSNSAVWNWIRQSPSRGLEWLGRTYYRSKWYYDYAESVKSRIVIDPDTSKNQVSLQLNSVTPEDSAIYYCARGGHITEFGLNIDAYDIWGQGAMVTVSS VL: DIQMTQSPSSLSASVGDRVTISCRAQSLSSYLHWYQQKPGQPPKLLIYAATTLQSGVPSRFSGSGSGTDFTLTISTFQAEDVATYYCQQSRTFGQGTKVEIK
Result: > 50 µg/mL
